# target.desc: EGFR del19/T790M/C797S (Homo sapiens, UniProt P00533, C797S/DEL746-750/T790M)
# Sequence (P00533 with tags, fused parts or gaps DEL746-750/T790M/C797S): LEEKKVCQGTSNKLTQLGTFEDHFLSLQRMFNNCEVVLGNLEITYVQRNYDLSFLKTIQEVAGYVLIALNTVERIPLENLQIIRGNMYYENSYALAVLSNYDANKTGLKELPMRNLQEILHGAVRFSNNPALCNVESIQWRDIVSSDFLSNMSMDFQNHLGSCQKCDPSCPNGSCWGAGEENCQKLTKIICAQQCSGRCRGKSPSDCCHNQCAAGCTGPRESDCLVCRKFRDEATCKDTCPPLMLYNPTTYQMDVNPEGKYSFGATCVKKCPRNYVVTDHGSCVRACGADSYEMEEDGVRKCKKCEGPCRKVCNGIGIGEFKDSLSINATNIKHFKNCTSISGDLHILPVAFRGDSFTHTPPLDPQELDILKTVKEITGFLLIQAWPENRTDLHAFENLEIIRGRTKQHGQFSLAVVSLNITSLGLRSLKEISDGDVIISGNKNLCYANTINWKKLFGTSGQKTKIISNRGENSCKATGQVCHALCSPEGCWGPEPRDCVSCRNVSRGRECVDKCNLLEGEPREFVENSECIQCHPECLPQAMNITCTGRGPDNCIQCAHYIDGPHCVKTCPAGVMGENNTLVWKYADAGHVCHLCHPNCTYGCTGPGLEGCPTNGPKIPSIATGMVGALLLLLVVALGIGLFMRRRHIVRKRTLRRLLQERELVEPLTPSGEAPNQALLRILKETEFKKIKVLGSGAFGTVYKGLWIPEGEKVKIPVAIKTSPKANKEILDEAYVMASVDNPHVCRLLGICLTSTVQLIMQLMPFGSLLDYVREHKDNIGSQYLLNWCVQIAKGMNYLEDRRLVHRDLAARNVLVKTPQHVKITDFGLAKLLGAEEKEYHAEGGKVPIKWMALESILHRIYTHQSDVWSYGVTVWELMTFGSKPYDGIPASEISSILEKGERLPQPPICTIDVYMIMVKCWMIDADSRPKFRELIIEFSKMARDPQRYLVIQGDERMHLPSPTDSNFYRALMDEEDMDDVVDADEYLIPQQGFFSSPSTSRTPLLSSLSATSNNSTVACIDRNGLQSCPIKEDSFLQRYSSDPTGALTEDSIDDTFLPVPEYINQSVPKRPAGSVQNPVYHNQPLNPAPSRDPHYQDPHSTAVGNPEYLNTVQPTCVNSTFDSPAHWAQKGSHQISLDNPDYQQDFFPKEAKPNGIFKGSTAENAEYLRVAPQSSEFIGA
# test.description: Biochemical EGFR kinase assay (Lance Ultra TR-FRET), triple mutant del19/T790M/C797S
# condition.notes: IC50 del19/T790M/C797S (nM) 100 μM ATP, 100 μM ATP
observable: IC50 (nM)

# example entries with known answers
C[C@]1(O)CC[C@@H](Nc2cc(Nc3ccnc(-c4cnn(CC5CC5)c4)n3)ncc2-c2ccn(C(F)F)n2)CC1 [Example 141]
15.8
O=S(=O)(C1CC1)n1cc(-c2nccc(Nc3cc(NC4CCC(F)(CO)CC4)c(-c4ccn(C(F)F)n4)cn3)n2)cn1 (stereo not shown) [Example 190]
1.2
Cn1ccc(-c2cnc(Nc3ccnc(-c4cnn(S(=O)(=O)C5CC5)c4)n3)cc2N[C@H]2CC[C@@H](O)CC2)n1 [Example 79]
0.5
O=S(=O)(C1CC1)n1cc(-c2nccc(Nc3cc(N[C@H]4CC[C@@H](NCCF)CC4)c(-c4cc5n(n4)CCCC5)cn3)n2)cn1 [Example 62]
0.3
CNC1CCC(Nc2cc(Nc3ccnc(-c4cnn(S(=O)(=O)C5CC5)c4)n3)ncc2-c2ccn(C(F)F)n2)CC1 (stereo not shown) [Example 16]
0.3

1: Cn1nc(-c2cnc(Nc3ccnc(-c4cnn(S(=O)(=O)C5CC5)c4)n3)cc2N[C@H]2CC[C@@](C)(O)CC2)cc1C(F)(F)F [Example 252]
2: CN(CC(F)F)C(=O)[C@H]1CC[C@@H](Nc2cc(Nc3ccnc(-c4cnn(S(=O)(=O)C5CC5)c4)n3)ncc2-c2ccn(C)n2)CC1 [Example 235]
Which has the smaller recorded IC50, 1 or 2 ? State your choice using its label.
2

a: O=S(=O)(C1CC1)n1cc(-c2nccc(Nc3cc(NC4CCCC4O)c(-c4ccn(C(F)F)n4)cn3)n2)cn1 (stereo not shown) [Example 29]
b: O=S(=O)(C1CC1)n1cc(-c2nccc(Nc3cc(N[C@H]4CC[C@@H](O)CC4)c(-c4csc(C(F)(F)F)n4)cn3)n2)cn1 [Example 81]
Which has the smaller recorded IC50, a or b ? State your choice using its label.
b

A: O=S(=O)(C1CC1)n1cc(-c2nccc(Nc3cc(OC4CCC(OC(F)F)CC4)c(-c4cnn(C(F)F)c4)cn3)n2)cn1 (stereo not shown) [Example 70]
B: O=S(=O)(C1CC1)n1cc(-c2nccc(Nc3cc(N[C@H]4CCCNCC4)c(-c4ccn(C(F)F)n4)cn3)n2)cn1 [Example 17]
C: Cn1ccc(-c2cnc(Nc3ccnc(-c4cnn(S(=O)(=O)C5CC5)c4)n3)cc2NC[C@H]2CC[C@@H](O)C2)n1 [Example 118]
Task for the reader: rank each entry by its IC50, from the minimum upward. Output the labels ranked as instructed.
C, B, A

Measured values drawn from patent US12258327B2 for this set.
